- Tested on: NCI-H2228
- test name: cells
- measurement setup: Homo sapiens, NCI-H2228, 72 h
- Description: Antiproliferative activity against human NCI-H2228 cells harboring EML4-ALK after 72 hrs by MTT assay
pIC50: −log10 of the molar value.
Label Condition not met if pIC50 falls below 7; label Condition met in every other case.

COc1nc(N2CC(O)C2)ccc1Nc1ncc(Cl)c(Nc2ccccc2NS(=O)(=O)C2CC2)n1
Condition met
COc1nc(N2CCCC2)ccc1Nc1ncc(Cl)c(Nc2ccccc2NS(C)(=O)=O)n1
Condition not met
CCN1CCN(c2ccc(Nc3ncc(Cl)c(Nc4ccccc4NS(C)(=O)=O)n3)c(OC)n2)CC1
Condition not met
COc1nc(N2CCNC(C)C2)ccc1Nc1ncc(Cl)c(Nc2ccccc2NS(C)(=O)=O)n1 (stereo unspecified)
Condition not met
Cc1cc(Nc2ncc(Cl)c(Nc3ccccc3S(=O)(=O)C(C)C)n2)c(OC(C)C)cc1C1CCNCC1 [CERITINIB]
Condition met

Evaluate COc1nc(N2CCN(C)CC2)ccc1Nc1ncc(Cl)c(Nc2ccccc2NS(=O)(=O)C2CC2)n1 : pIC50 at minimum 7?
Condition met

Evaluate COc1nc(N2CC(O)C2)ccc1Nc1ncc(Cl)c(Nc2ccccc2NS(C)(=O)=O)n1 : pIC50 at minimum 7?
Condition met
